# STUDY SYSTEM: CYP1A1 (Homo sapiens, UniProt P04798)
# Sequence (P04798 whole entry): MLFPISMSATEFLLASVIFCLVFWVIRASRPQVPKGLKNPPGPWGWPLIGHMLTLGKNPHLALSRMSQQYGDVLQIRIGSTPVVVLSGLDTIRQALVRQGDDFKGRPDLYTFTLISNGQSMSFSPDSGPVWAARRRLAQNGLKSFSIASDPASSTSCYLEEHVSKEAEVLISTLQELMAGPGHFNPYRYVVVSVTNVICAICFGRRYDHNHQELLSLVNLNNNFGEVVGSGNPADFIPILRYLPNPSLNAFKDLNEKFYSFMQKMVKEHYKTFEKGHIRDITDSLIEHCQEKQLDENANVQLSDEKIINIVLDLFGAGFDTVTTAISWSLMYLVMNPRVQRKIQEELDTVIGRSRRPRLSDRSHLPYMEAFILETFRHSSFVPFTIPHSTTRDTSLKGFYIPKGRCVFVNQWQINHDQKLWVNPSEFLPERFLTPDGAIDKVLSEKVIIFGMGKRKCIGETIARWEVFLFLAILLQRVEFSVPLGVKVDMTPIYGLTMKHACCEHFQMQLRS
# METHOD SUMMARY: in vitro
# DETAILS: probe ethoxyresorufin (O-deethylation)
# Description: Inhibition of recombinant human CYP1A1 expressed in Escherichia coli DH5aplha cells assessed as O-deethylation of ethoxyresorufin in presence of NADPH at 100 uM measured after 2 mins by spectrofluorometric method
QUANTITY MEASURED: activity at 2 min, 100 µM (%)

>>> print(df.to_string())
                            chem_smiles          quantity_measured  recorded_number
 0              Nc1ccc([N+](=O)[O-])cc1  activity at 2 min, 100 µM              100
 1                            Nc1ccccc1  activity at 2 min, 100 µM              100
 2        CC(=O)c1ccc(/N=N/N2CCOCC2)cc1  activity at 2 min, 100 µM               70
 3                        Nc1ccc(Br)cc1  activity at 2 min, 100 µM              100
 4                    Nc1ccc(C(=O)O)cc1  activity at 2 min, 100 µM              100
 5                  COc1cc(N)cc(OC)c1OC  activity at 2 min, 100 µM               95
 6      COc1cc(/N=N/N2CCOCC2)cc(OC)c1OC  activity at 2 min, 100 µM                8
 7        O=C(O)c1ccc(/N=N/N2CCOCC2)cc1  activity at 2 min, 100 µM               67
 8              c1ccc(/N=N/N2CCOCC2)cc1  activity at 2 min, 100 µM               56
 9       Oc1ccc(/C=C/c2cc(O)cc(O)c2)cc1  activity at 2 min, 100 µM               11
10  O=[N+]([O-])c1ccc(/N=N/N2CCOCC2)cc1  activity at 2 min, 100 µM               79

----------
# STUDY SYSTEM: Cytochrome P450 1A1 (Homo sapiens)
# Sequence (P04798 whole entry): as above
pIC50: −log10 of the molar value.
Classification field: enter yes for pIC50 values not below 4, no for values below it.

>>> df
                                   compound  assigned_category
0             O=C(O)c1ccc(/N=N/N2CCOCC2)cc1                 no
1  Oc1ccc(/C=C/c2cc(O)cc(O)c2)cc1 [RESVERATROL]                yes
2           COc1cc(/N=N/N2CCOCC2)cc(OC)c1OC                yes
3                 Brc1ccc(/N=N/N2CCOCC2)cc1                yes

----------
# STUDY SYSTEM: Cytochrome P450 1A1 (Homo sapiens)
pIC50: −log10 of the molar value.
QUANTITY MEASURED: pIC50

>>> df
                           chem_smiles  quantity_measured  recorded_number
0  O=[N+]([O-])c1ccc(/N=N/N2CCOCC2)cc1              pIC50             3.94
1        CC(=O)c1ccc(/N=N/N2CCOCC2)cc1              pIC50             4.09
2              c1ccc(/N=N/N2CCOCC2)cc1              pIC50             3.92
